- assay-target: OCTN1 (Solute carrier family 22 member 4, SLC22A4) (Rattus norvegicus)
- Sequence (Q9R141 whole entry): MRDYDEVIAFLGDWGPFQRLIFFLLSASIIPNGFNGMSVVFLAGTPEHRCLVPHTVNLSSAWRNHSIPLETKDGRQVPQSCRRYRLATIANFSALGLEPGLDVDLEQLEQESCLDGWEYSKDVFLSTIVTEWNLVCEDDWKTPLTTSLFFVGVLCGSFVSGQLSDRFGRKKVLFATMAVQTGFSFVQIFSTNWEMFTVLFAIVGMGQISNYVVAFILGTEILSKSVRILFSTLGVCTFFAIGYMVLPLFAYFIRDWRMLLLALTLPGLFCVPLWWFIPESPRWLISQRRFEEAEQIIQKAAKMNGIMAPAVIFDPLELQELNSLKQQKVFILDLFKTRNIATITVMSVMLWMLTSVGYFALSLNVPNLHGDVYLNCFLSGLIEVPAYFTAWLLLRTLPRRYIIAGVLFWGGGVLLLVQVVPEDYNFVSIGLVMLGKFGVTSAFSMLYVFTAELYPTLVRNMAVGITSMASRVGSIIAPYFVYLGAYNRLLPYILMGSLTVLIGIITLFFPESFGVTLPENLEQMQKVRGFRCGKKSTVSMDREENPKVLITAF
- assay-method-text: TP_TRANSPORTER: inhibition of TEA uptake by 1-methyl-4-phenylpyridinium at 5mM in Octn1-HRPE cells
- Type: functional, cell-based
- Design: scale not given: the % may be the effect or the level left
- assay-setup: human, HRPE cells that express Octn1, probe TEA (tetraethylammonium); read-out: Activity

| compound-structure-string | assay-target | activity at 5000 µM [%] |
| --- | --- | --- |
| C[n+]1ccc(-c2ccccc2)cc1 | OCTN1 (Solute carrier family 22 member 4, SLC22A4) (Rattus norvegicus) | 62 |

---

- assay-target: OCTN1 (Solute carrier family 22 member 4, SLC22A4) (Rattus norvegicus, UniProt Q9R141)
- Sequence (Q9R141 whole entry): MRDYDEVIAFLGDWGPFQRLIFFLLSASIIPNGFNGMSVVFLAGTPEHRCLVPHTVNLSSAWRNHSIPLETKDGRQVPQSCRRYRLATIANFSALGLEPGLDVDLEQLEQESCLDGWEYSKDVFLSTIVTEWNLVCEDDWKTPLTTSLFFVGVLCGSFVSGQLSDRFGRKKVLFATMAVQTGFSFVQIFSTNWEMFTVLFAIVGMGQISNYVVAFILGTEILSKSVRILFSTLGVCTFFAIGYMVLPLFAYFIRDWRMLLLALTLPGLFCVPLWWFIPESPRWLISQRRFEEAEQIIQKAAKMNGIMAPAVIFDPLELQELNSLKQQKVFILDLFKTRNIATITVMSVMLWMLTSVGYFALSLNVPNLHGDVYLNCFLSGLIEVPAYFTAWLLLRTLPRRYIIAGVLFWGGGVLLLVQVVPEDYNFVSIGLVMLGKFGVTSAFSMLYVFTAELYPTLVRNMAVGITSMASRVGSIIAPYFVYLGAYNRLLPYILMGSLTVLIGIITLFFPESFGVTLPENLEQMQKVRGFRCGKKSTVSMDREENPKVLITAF
- assay-method-text: TP_TRANSPORTER: inhibition of TEA uptake by Imipramine at 1mM in Octn1-HRPE cells
- Assay type: functional, cell-based
- Parameters: scale not given: the % may be the effect or the level left
- assay-setup: human, HRPE cells that express Octn1, probe TEA (tetraethylammonium); read-out: Activity

| compound-structure-string | unit-of-measure | activity at 1000 µM |
| --- | --- | --- |
| CN(C)CCCN1c2ccccc2CCc2ccccc21 | % | 31 |

---

- assay-target: OCTN1 (Solute carrier family 22 member 4, SLC22A4) (Rattus norvegicus)
- Sequence (Q9R141 whole entry): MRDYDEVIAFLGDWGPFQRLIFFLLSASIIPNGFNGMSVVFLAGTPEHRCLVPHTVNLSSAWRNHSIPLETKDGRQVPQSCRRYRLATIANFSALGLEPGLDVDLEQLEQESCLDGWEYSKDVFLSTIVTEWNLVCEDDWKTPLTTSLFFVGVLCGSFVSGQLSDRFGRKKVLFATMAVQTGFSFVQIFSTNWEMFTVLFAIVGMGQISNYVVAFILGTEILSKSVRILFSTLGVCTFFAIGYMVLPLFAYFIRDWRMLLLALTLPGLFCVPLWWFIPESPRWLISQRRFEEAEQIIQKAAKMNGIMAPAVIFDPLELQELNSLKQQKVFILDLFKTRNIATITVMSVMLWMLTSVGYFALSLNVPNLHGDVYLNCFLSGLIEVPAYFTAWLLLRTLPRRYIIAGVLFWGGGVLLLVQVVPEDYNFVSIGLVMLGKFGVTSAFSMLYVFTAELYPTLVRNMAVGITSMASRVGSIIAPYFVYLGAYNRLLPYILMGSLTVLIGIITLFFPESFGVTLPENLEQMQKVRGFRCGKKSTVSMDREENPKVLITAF
- assay-method-text: TP_TRANSPORTER: inhibition of TEA uptake by Verapamil at 5mM in Octn1-HRPE cells
- Format: functional, cell-based
- Design: scale not given: the % may be the effect or the level left
- assay-setup: human, HRPE cells that express Octn1, probe TEA (tetraethylammonium); read-out: Activity
value-type: activity at 5000 µM (%)

| compound | assay-target | unit-of-measure | value-observed |
| --- | --- | --- | --- |
| COc1ccc(CCN(C)CCCC(C#N)(c2ccc(OC)c(OC)c2)C(C)C)cc1OC (stereo unspecified) [VERAPAMIL] | OCTN1 (Solute carrier family 22 member 4, SLC22A4) (Rattus norvegicus) | % | 20 |

---

- assay-target: Solute carrier family 22 member 4 (Rattus norvegicus)
- assay-method-text: TP_TRANSPORTER: inhibition of TEA uptake in Octn1-HRPE cells

| compound | unit-of-measure | IC50 |
| --- | --- | --- |
| CN/C(=N/CCSCc1nc[nH]c1C)NC#N | µM | 1500 |
| CCN(CC)CCNC(=O)c1ccc(N)cc1 [PROCAINAMIDE] | µM | 1000 |
| CC[N+](CC)(CC)CC | µM | 1000 |
| CN(C)c1nc(N)c(C(=O)NC(=N)N)nc1Cl | µM | 200 |
| CNCCCN1c2ccccc2CCc2ccccc21 | µM | 80 |
